Tested on: Aedes aegypti
Condition Description: day 14; formulation on military fabric at LC99-based concentration; 2 h exposure, mortality 24 h after initial exposure
Metric Name: % mortality on various days following treatment

Some entries whose results are on file:
> print(dat)
                                   molecule  result.value
1  CC1(C)CCCC2=C1CC(C=O)CC2 (stereo not shown) [Cyclemone A]      17.50a %
2           C=CCCCCCCCCO [Rosalva, rosalva]       0.00d %

Which % mortality on various days following treatment is reported for this molecule? CC(=O)CC/C=C(\C)CCC=C(C)C [Geranyl acetone, geranyl acetone]
5.00c %

Which % mortality on various days following treatment is reported for this molecule? CC(C)=CCCC(C)CCO (stereo not shown) [Citronellol, citronellol]
2.50cd %
